# Tested on: CEM cells HIV-1 protection, formazan growth assay
# experimental protocol: NCI AIDS Antiviral Assay
# experimental context: measured here: growth of uninfected CEM cells
observable: IC50 (µM)
State the answer as a number, implicitly in µM.

CC(NNC(=S)N1CCCCCC1)c1cccnn1 (stereo not drawn) :: 0.355
COc1cc(C2c3cc4c(cc3OC(NN)C2C)OCO4)cc(OC)c1OC (stereo not drawn) :: 1
c1cc2n(n1)CCN2 :: 170

**Query** Which measured IC50 value corresponds to COC(=O)C(=O)C(C(=O)C(=O)Nc1ccc([N+](=O)[O-])cc1[N+](=O)[O-])c1nc2ccc([N+](=O)[O-])cc2[nH]c1=O (stereo not drawn) ?
**Result** 141

**Query** Which measured IC50 value corresponds to OC1(c2ccccc2)CSC2=Nc3ccccc3C3CCN1N23 (stereo not drawn) ?
**Result** 36.3

**Query** Which measured IC50 value corresponds to Cc1c([O-])c([O-])c(C)c2c1OCO2.[C-]#[O+].[C-]#[O+].[C-]#[O+].[C-]#[O+].[Re] ?
**Result** 31.6

**Query** Which measured IC50 value corresponds to Cc1ccsc1/C=N/Nc1ccc2ccccc2n1 ?
**Result** 18.6

**Query** Which measured IC50 value corresponds to CC(C)(CN1CCCCC1)C(=O)/C=C/c1c(Cl)cccc1Cl ?
**Result** 1.86

**Query** Which measured IC50 value corresponds to CC(C)CNC(=O)Cn1c(-c2ccccc2)cc2ccccc21 ?
**Result** 195

**Query** Which measured IC50 value corresponds to CC(=O)O[C@H]1[C@@H]2CC(C)(C)CC2=C(C=O)C2(C=O)CC12C (stereo partly drawn) ?
**Result** 13.5

**Query** Which measured IC50 value corresponds to CCOC(=O)/C(=C/c1ccc(C(F)(F)F)cc1)N(CC)CC ?
**Result** 64.6

**Query** Which measured IC50 value corresponds to CN(C)CC/C=C1/c2ccccc2Sc2ccc(Cl)cc21 ?
**Result** 27.5

**Query** Which measured IC50 value corresponds to Cc1nc(N)c2nc(Nc3ccccc3)sc2n1 ?
**Result** 66.1

Ref: PubChem BioAssay AID179
